- test.name: NCI Yeast Anticancer Drug Screen. Data for the mec2-1 strain (AID 157)
- condition.summary: S. cerevisiae mec2-1 strain, at 50.0 µM (retest, dose inferred, filed as 5.0), hits give high values
The panel holds about 79,000 compounds, 15% with a hit somewhere; the sample as a whole holds those more often.
quantity: growth inhibition (%)

compound | quantity | unit.annotation | reported.value
Cc1ccc(O)c2c(NCCCCCCNc3cc(C)[n+](C)c4c(C)ccc(O)c34)cc(C)[n+](C)c12 | growth inhibition | % | 76
O=C1c2c(O)ccc(O)c2C(=O)c2c(O)ccc(O)c21 | growth inhibition | % | -12
NC(=O)/C=C/C(=O)c1c(Cl)cccc1Cl | growth inhibition | % | 100
CS(=O)(=O)OCCN(CCOS(C)(=O)=O)c1ccc(C=Nc2cccc(Cl)c2)cc1 | growth inhibition | % | 91
C#CC(C)(C)Nc1c2ccccc2nc2ccccc12 | growth inhibition | % | 97
Cc1ccc(N=c2cc(-c3ccccc3)oc3ccccc23)c(C)c1 | growth inhibition | % | 48
Cc1ccc(N2C(=O)C(C)SC23C(=O)Nc2ccc(Cl)cc23)cc1 (configuration not stated) | growth inhibition | % | 99
Cc1cc(I)cc(I)c1O | growth inhibition | % | 34
CCOC(=N)CCCSSc1ccc(N=[N+]=[N-])cc1 | growth inhibition | % | 99
C#CC(NCCC(C)CC(C)(C)C)C(C)C (configuration not stated) | growth inhibition | % | -31
O=C(O)c1cc2cc3ccccc3cc2cc1O | growth inhibition | % | 34
COC(=O)Nc1nc2ccc(C(=O)c3ccccc3)cc2[nH]1 | growth inhibition | % | -7
